Listing of recorded inhibition by entry.
Procedure details: TLR3 IRF3 reporter activation blockers – cell-based, poly I:C stimulus, luciferase, 10K MLSCN set, primary screen (AID 602277)
Experimental setup: HEK293-TLR3 RL24 IRF3 luciferase reporter, at 10 µM, active compounds read high
Hi! Could you send only the number? It should be in %, unit omitted.

{"Compound": "Cc1ccc(NC2c3ncccc3C(=O)N2C2CCCCC2)cc1C (stereo unspecified)", "inhibition / %": 7.53}

QUERY: Entry CCCn1c(NCc2ccc3c(c2)OCO3)nc2ccccc21 : reported inhibition = ?
RESULT: -7.89

QUERY: Field entry: O=C(C1CCC1)N1CCc2cc(S(=O)(=O)Nc3ccc4c(c3)OCO4)ccc21
RESULT: 13.6

QUERY: Field entry: CCOC(=O)N1CCN(S(=O)(=O)c2ccc(Br)s2)CC1
RESULT: 11.6
